Tested System: HRH2 (Homo sapiens)
Construct: purchased DiscoverX (Eurofins) Safetyscan Panel
Sequence (P25021 whole entry): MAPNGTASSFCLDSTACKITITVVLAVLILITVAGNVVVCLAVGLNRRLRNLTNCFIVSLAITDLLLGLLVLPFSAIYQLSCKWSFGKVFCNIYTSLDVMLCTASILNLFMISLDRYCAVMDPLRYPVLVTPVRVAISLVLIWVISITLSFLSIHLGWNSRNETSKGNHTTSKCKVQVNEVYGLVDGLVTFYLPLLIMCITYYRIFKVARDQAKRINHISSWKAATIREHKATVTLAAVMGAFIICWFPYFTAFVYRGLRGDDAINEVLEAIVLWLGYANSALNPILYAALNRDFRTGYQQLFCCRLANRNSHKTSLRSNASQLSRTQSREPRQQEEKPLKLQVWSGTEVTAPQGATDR
Method Description: Safetyscan cAMP
Assay type: cell-based
Setup Conditions: antagonist mode, read-out: RC50 (IC50) HRH2 Antagonist
Endpoint Name: IC50

**Q:** Requested field: IC50. Item: `Cc1c(C#N)cccc1[C@@H](C)Nc1nnc(C)c2cnc(N3CCOCC3)cc12`
**A:** > 10 µM

###

Tested System: ROCK1 (Homo sapiens)
Sequence (Q13464 whole entry): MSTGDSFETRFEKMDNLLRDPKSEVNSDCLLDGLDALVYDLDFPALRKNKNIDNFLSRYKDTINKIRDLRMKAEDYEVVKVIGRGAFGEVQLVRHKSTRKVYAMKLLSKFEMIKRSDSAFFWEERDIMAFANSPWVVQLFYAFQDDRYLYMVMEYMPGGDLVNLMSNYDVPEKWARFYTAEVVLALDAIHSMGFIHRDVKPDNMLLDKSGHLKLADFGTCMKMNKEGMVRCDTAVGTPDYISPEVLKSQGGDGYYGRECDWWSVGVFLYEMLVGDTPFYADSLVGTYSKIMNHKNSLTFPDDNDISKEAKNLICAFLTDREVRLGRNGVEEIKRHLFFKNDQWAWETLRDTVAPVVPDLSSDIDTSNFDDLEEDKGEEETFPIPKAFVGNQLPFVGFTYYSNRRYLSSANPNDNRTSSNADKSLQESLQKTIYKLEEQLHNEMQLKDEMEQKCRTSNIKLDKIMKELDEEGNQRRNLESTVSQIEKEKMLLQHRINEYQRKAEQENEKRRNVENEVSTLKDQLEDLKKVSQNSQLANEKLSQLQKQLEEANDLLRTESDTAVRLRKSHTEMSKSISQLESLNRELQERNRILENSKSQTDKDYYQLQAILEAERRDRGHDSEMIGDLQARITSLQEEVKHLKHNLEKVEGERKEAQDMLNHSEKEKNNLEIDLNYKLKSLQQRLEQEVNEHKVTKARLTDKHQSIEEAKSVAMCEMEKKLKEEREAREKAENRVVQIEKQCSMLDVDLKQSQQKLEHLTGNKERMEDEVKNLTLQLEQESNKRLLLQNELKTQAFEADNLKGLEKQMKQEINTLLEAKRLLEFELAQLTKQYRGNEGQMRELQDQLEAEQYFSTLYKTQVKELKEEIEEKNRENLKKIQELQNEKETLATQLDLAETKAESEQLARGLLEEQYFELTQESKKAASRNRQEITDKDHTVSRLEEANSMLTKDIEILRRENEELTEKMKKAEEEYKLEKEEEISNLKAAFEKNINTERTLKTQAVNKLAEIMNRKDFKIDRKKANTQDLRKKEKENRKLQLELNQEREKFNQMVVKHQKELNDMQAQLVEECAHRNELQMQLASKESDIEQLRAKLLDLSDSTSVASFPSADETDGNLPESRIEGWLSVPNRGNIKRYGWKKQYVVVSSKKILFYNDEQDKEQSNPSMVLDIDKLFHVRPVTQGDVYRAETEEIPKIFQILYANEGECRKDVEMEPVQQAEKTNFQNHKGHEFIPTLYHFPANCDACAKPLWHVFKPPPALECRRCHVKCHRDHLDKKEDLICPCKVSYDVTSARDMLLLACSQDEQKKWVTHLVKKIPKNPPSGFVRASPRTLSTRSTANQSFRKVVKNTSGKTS
pIC50: −log10 of the molar value.
Endpoint Name: pIC50

**Q:** ROCK1 (Homo sapiens) / pIC50 / `Cc1c(C#N)cccc1[C@@H](C)Nc1nnc(C)c2cnc(N3CCOCC3)cc12` : value?
**A:** < 5.00
